# Tested on: UO-31
# ASSAY_NAME: NCI tumour cell line growth inhibition, 48 h
Activity calls are given as the source filed them. Rule as the data show it: active = GI50 up to about 1.1 µM and inactive = higher.
Possible outcomes: 1 = active, -1 = inactive

[[record]]
molecule = "N=C(N)N/N=C\\c1c(-c2ccccc2)nc2sccn12"
class = -1

[[record]]
molecule = "CC[C@H](C)[C@@H]([C@@H](CC(=O)N1CCC[C@H]1[C@H](OC)[C@@H](C)C(=O)NCCc1ccccc1)OC)N(C)C(=O)C(NC(=O)[C@H](C(C)C)N(C)C)C(C)C (some centres not stated)"
class = 1

[[record]]
molecule = "O=C1c2ccccc2C(=O)C1(O)c1c[nH]c2ccccc12"
class = -1

[[record]]
molecule = "NC(=S)N/N=C(\\CCC(=O)Nc1ccccc1[N+](=O)[O-])CC(=O)c1ccco1"
class = -1

[[record]]
molecule = "CC(=O)C1C(=O)C(=O)N(c2ccc(Cl)c(Cl)c2)C1=O (configuration not stated)"
class = -1

[[record]]
molecule = "COC(=O)CCC12CCC(O1)c1ccccc12 (configuration not stated)"
class = -1

[[record]]
molecule = "OC1=C(c2ccccc2)C2=NCCN2c2ccccc21"
class = -1


---

# Test system: SK-MEL-5
# ASSAY_NAME: NCI tumour cell line growth inhibition, 48 h
Active and inactive are the calls of the source. Cut-off read from the data, not from the text of the source: active = GI50 up to about 1.1 µM and inactive = higher.
Possible outcomes: yes for active, no for inactive

[[record]]
compound = "COC(=O)c1nc(-c2ccc3c(n2)C(=O)C(=N)C(OC)=C3O)c(N)c(-c2ccc(OC)c(OC)c2O)c1C"
target_desc = "SK-MEL-5"
class = "yes"

[[record]]
compound = "CO/C=C(/C(=O)OC)[C@@H]1C[C@@H]1c1ccc2ccccc2c1"
target_desc = "SK-MEL-5"
class = "no"

[[record]]
compound = "COc1ccc(Nc2[nH]c(C(C)=O)c(N)c2C(=S)Nc2ccccc2)cc1"
target_desc = "SK-MEL-5"
class = "no"

[[record]]
compound = "CC(C)C(Br)C(=O)NCC(=O)O (stereo not drawn)"
target_desc = "SK-MEL-5"
class = "no"

[[record]]
compound = "C/C(=C\\CNc1ncnc2[nH]c(Cl)nc12)CO"
target_desc = "SK-MEL-5"
class = "no"

[[record]]
compound = "O=C1C(Cl)=C(N2CCN(C3=C(Cl)C(=O)c4ccccc4C3=O)CC2)C(=O)c2ccccc21"
target_desc = "SK-MEL-5"
class = "no"

[[record]]
compound = "OCCN(CCO)c1ncnc2[nH]cnc12"
target_desc = "SK-MEL-5"
class = "no"

[[record]]
compound = "O=c1o[nH]/c(=N/c2ccccc2)n1-c1ccccc1"
target_desc = "SK-MEL-5"
class = "no"

[[record]]
compound = "CCOC(=O)N1Cc2ccoc2C1"
target_desc = "SK-MEL-5"
class = "no"

[[record]]
compound = "NC1=NC2=c3ccccc3=C(c3cnccn3)C2(c2cnccn2)c2ccccc21 (stereo not drawn)"
target_desc = "SK-MEL-5"
class = "no"

[[record]]
compound = "COC1/C=C\\C=C(/C)C(=O)NC2=CC(=O)C=C(C2=O)C(OC)C(C)CC(OC)C(OC)C(C)/C=C(/C)C1OC(N)=O (stereo not drawn)"
target_desc = "SK-MEL-5"
class = "no"

[[record]]
compound = "CC1=CCC2(C#N)CCC1C2O (stereo not drawn)"
target_desc = "SK-MEL-5"
class = "no"

[[record]]
compound = "CN(NC(=O)c1ccco1)C1=NCCN1"
target_desc = "SK-MEL-5"
class = "no"

[[record]]
compound = "N#C/C(=C\\c1ccc(O)cc1)C(N)=O"
target_desc = "SK-MEL-5"
class = "no"

[[record]]
compound = "CCCNC(=O)Nc1c([N+](=O)[O-])cc(C(F)(F)F)cc1[N+](=O)[O-]"
target_desc = "SK-MEL-5"
class = "no"

[[record]]
compound = "Cc1cc(C)nc(NS(=O)(=O)c2ccc(Nc3c4ccccc4nc4c(C(=O)Nc5ccc(S(=O)(=O)Nc6cc(C)on6)cc5)cccc34)cc2)n1"
target_desc = "SK-MEL-5"
class = "no"

[[record]]
compound = "O=C(Cc1ccccc1)NCCc1ccc(O)c(O)c1"
target_desc = "SK-MEL-5"
class = "no"

[[record]]
compound = "COC1C(O)C(C)OC(O[C@@H]2C[C@H]3CC[C@@H]4[C@H](CC[C@]5(C)[C@@H](C6=CC(=O)OC6)CC[C@]45O)[C@@]3(C)[C@H](O)C2)C1O (stereo partly drawn)"
target_desc = "SK-MEL-5"
class = "yes"

[[record]]
compound = "CC(C)[C@@H](C)CC[C@@H](C)C1CC=C2[C@@H]3CCC4C[C@@H](O[Si](C)(C)C(C)(C)C)CC[C@]4(C)C3CC[C@@]21C (stereo partly drawn)"
target_desc = "SK-MEL-5"
class = "no"

[[record]]
compound = "N#CC1(C#N)C(C#N)(C#N)C12CCCCCC2"
target_desc = "SK-MEL-5"
class = "no"

[[record]]
compound = "N#CSC#Cc1ccc(C#CSC#N)cc1"
target_desc = "SK-MEL-5"
class = "no"

[[record]]
compound = "COc1ccc2c(c1)CCc1c-2n(CCN(C)C)c2ccc(OC)cc12"
target_desc = "SK-MEL-5"
class = "no"

[[record]]
compound = "COCCOCCOCCOc1ccc(C(C#N)N(CCc2ccccc2)C(=O)c2cc(C(=O)N(CCc3ccccc3)C(C#N)c3ccc(OCCOCCOCCOC)cc3)cc(C(=O)N(CCc3ccccc3)C(C#N)c3ccc(OCCOCCOCCOC)cc3)c2)cc1 (stereo not drawn)"
target_desc = "SK-MEL-5"
class = "no"

[[record]]
compound = "NNC(=O)/C(NC(=O)c1ccccc1)=C(\\N)c1cccc([N+](=O)[O-])c1"
target_desc = "SK-MEL-5"
class = "no"

[[record]]
compound = "CC1(C)C(C(=O)OC(C#N)c2cccc(OCC(=O)OCc3ccccc3)c2)C1(C)C (stereo not drawn)"
target_desc = "SK-MEL-5"
class = "no"

[[record]]
compound = "Cc1cc(N(CCC#N)CCC#N)ccc1/C=C1N=C(/C=C/c2ccccc2)N(c2ccc(S(N)(=O)=O)cc2)C\\1=O"
target_desc = "SK-MEL-5"
class = "no"

[[record]]
compound = "Nc1ccc(-c2nc3ccccc3s2)cc1C(F)(F)F"
target_desc = "SK-MEL-5"
class = "no"

[[record]]
compound = "Cc1ccc(S(=O)(=O)NNC(=O)Nc2cccc(C(F)(F)F)c2)cc1"
target_desc = "SK-MEL-5"
class = "no"

[[record]]
compound = "Cc1cn2c(=O)c3ccccc3nc2s1"
target_desc = "SK-MEL-5"
class = "no"

[[record]]
compound = "CC(C)(C)c1ccc(OCCOc2ccc(C(C)(C)C)cc2NC=O)c(NC=O)c1"
target_desc = "SK-MEL-5"
class = "no"

[[record]]
compound = "NC(=O)C(=O)c1ncn(Cc2ccccc2)c1N"
target_desc = "SK-MEL-5"
class = "no"

[[record]]
compound = "Cn1nnc2c(C(N)=S)ncn2c1=O"
target_desc = "SK-MEL-5"
class = "no"

[[record]]
compound = "O=C1Nc2ccccc2/C1=N/Nc1ccc([N+](=O)[O-])cc1"
target_desc = "SK-MEL-5"
class = "no"

